- Tested system: EID2B
- Experiment summary: pooled miR-30 sensor sort-seq; sequence = guide strand; note: reference of the scale not given here
- Condition description: shRNA
Note to self: values exactly at -0.3 are Y. So sensor-assay potency score (higher = more potent) at or above -0.3 is Y, below is N.

Query string: Is sensor-assay potency score (higher = more potent) at least -0.3? Consider `TTTTTTCTCATATCTTTGCAAA`
Result string: N

Query string: Please answer likewise for `TATCTTTGCAAAACCATCCTTT`
Result string: Y

Query string: For `TTCCTGACAACTCTATTTCTTT` then?
Result string: N

Query string: Moving on to `TAAGTCAGAAGTGTCTTGGGAC`
Result string: Y

Query string: Next: `ATACTCGCGGAACAACAGCTGC`
Result string: N

Query string: Again, but for `TTTTCTTTCATCACTTAGGTTC`
Result string: Y

Query string: Same thing, different sequence: `TAACTAAACTGGCACAGCCTGC`
Result string: N

Query string: Next record, please: `TTTTCTATTGAATATTTACTGT`
Result string: N

###

I'd be grateful if you could share measured sensor-assay potency score (higher = more potent) for these entries.
- Tested system: TRIM2
- Experiment summary: pooled miR-30 sensor sort-seq; sequence = guide strand
- Condition description: shRNA
Lab note: record just the number, no unit beside it.

Query string: Query (sequence): `TATTGCTATTTACAGCTGCAAA` ; field requested: sensor-assay potency score (higher = more potent)
Result string: -1.54

Query string: Also check `TTCCATTTGAATCCACTGCTAC`
Result string: -0.305

Query string: Also, `TAAAATTCCATCACATTCCCAT` please.
Result string: 0.363

Query string: Param item: `TTTCCAGTGCTGTACATGCTTG`
Result string: -1.12

Query string: Input `TTTTTGTCTTAAATTTCCCATC`
Result string: -1.5

Query string: Moving on to `TTGTCTTAAATTTCCCATCGGA`
Result string: 0.291

Query string: Try this sequence too: `TTCCATTTGTAGATGCAGCTAC`
Result string: 0.668

###

- Tested system: LSG1
- Experiment summary: pooled miR-30 sensor sort-seq; sequence = guide strand
- Condition description: shRNA
Measurement type: sensor-assay potency score (higher = more potent)
Output: the number by itself.

Query string: Dear colleague, I am looking for the recorded sensor-assay potency score (higher = more potent) of the following sequence: `TTGATTGTTGAACTCTTACCAA`
Result string: -0.2

Query string: Another: `TTGTGTATCTGCCTCTTCTGTG`
Result string: -0.396

Query string: Query `TTGTGTGCAACCAGGAGTCAGT` next
Result string: -0.781

Query string: What about `TTGCTTTGTCTATCATCTCTGT` ?
Result string: -0.0591

Query string: Another sequence: `TGTGTCTCGTGAACCATCCCTT`
Result string: 0.477

Query string: Now the same for `TTTCGAGCATCTACTATCTGGA`
Result string: -0.305

Query string: Please do the same for `TTGTTGAACTCTTACCAACATT` as well.
Result string: -1.39

Query string: What would you report for `TTGAACTCTTACCAACATTAGG` ?
Result string: -1.3

###

- Tested system: C4orf45
- Experiment summary: pooled miR-30 sensor sort-seq; sequence = guide strand
- Condition description: shRNA
Measurement type: sensor-assay potency score (higher = more potent)
Just the number, please, no unit after it.

Query string: Return reported sensor-assay potency score (higher = more potent); argument: `ATAAATATCTGAGATCTCCAGT`
Result string: 0.467

Query string: Also check `TAATCCTTTATGTAGTCTGGAC`
Result string: -0.844

Query string: One more sequence: `TCTCTGATCAGTGTCCTCGAAA`
Result string: -0.979

Query string: Another sequence to check: `TAGGTGGTTTGGAAGCTCTTGG`
Result string: -0.261

Query string: Continue with `TTTTTCTAACGCCAGATGCTGT`
Result string: -0.936

Query string: Input `TTATATTTTGCTGGCAAGCTTC`
Result string: -1.08

Query string: Moving on to `TTATACTGTGGTATTCTCCAAC`
Result string: -0.109

Query string: And what about the sequence `TTTTGGTAGCTTCGGCAGCTTA` ?
Result string: -1.74

###

- Tested system: ST8SIA4
- Experiment summary: pooled miR-30 sensor sort-seq; sequence = guide strand
- Condition description: shRNA
Measurement type: sensor-assay potency score (higher = more potent)
Number, no unit, nothing else.

Query string: Which sensor-assay potency score (higher = more potent) is listed for `TACATGAGAAGACCTGTGCTGG` ?
Result string: -0.695

Query string: What about this sequence? `TTTAACTACAGAAAATATCGGT`
Result string: 0.525

Query string: Try this sequence next: `TTAACTACAGAAAATATCGGTC`
Result string: 0.169

Query string: And `TTTGATAGGAACTTTGTTGGTC` ?
Result string: 0.701

Query string: Quick one: `TTTCCAACCTTCTACATTGTGC`
Result string: -0.709

Query string: Moving on to `ATTGTGACTGTCAATCTCCTTT`
Result string: -0.228

Query string: // query: `TCTTTTGATAGGAACTTTGTTG`
Result string: -0.556

###

- Tested system: IFI44L
- Experiment summary: pooled miR-30 sensor sort-seq; sequence = guide strand
- Condition description: shRNA
Measurement type: sensor-assay potency score (higher = more potent)
The answer should be a number; do not append a unit.

Query string: // sensor-assay potency score (higher = more potent) lookup, key: `TTCTTTGTGAACTTGCTTCACT`
Result string: 0.156

Query string: Also, `TTTATGGACATTCATGACCCGG` please.
Result string: -1.2

Query string: Would you kindly repeat that for `TTTGTGAACTTGCTTCACTTTT` ?
Result string: -0.819

Query string: Ok, now `TAGCATTTTATGGACATTCATG`
Result string: -1.18

###

Please go through the items and note down their sensor-assay potency score (higher = more potent).
- Tested system: C17orf103
- Experiment summary: pooled miR-30 sensor sort-seq; sequence = guide strand
- Condition description: shRNA

Query string: Using the record for `TCATGACATCCGTTGAGCCGGA` , report its sensor-assay potency score (higher = more potent).
Result string: -0.377

Query string: Cool, now `TTGAGCCGGACAGTGAACTGGC`
Result string: -0.109

Query string: Next sequence: `ACGTACTTCTGGATGTACCAGC`
Result string: -1.62

Query string: Repeat with `TCATAGAGCAGGACGGCCCGGT`
Result string: -0.156

Query string: Same for `TGGGACCTCGGTGTGCTGCAGG`
Result string: -1.5

Query string: `TGTACCAGCAGGTGAGATGGGC` ?
Result string: -0.507

Query string: Please answer likewise for `TAGGCATCTGGGACCTCGGTGT`
Result string: -0.272

Query string: Likewise for `TCTCCTTGACGTACTTCTGGAT` ?
Result string: -0.358

###

- Tested system: FAM178A
- Experiment summary: pooled miR-30 sensor sort-seq; sequence = guide strand
- Condition description: shRNA
Measurement type: sensor-assay potency score (higher = more potent)
Number only, please.

Query string: What sensor-assay potency score (higher = more potent) value was documented for this sequence, `TTTTTCTTGAGAGATGTCCATT` ?
Result string: -1.17

Query string: Record: `TATACCATGATCTTCATGGTGC`
Result string: 0.577

Query string: Then this sequence: `TATGTCTTCTTGTAGTTGCTTC`
Result string: 0.216

Query string: Now the sequence `TTTGGTATCATAGATTCTCTTG`
Result string: -0.0968

Query string: Here is the next sequence: `TGAATGAATAGTGACTTCCTTC`
Result string: -0.297

Query string: Again, but for `TAGACAATCTACTTCCTCCATA`
Result string: -0.597

Query string: And for `TAAGAAGCTAGTGACAACTGGA` ?
Result string: 0.82

###

- Tested system: GPR172A
- Experiment summary: pooled miR-30 sensor sort-seq; sequence = guide strand
- Condition description: shRNA
# binarize sensor-assay potency score (higher = more potent): threshold -0.9 inclusive, high side Condition met, low side Condition not met

Query string: Item `AAAACGCTCAAGGAAGTCGAGC` with sensor-assay potency score (higher = more potent) of -0.9 or above?
Result string: Condition not met

Query string: Please answer likewise for `TGGAACACGTGATAGATGCTGG`
Result string: Condition met

Query string: Entry `TCACGTAGGAGAACACGCCAAG` please
Result string: Condition not met

Query string: What would you report for `TTAGGGTCTGGACCAGGGGTGG` ?
Result string: Condition not met

###

Exercise: state measured sensor-assay potency score (higher = more potent) for each of the sequences provided.
- Tested system: GIPC2
- Experiment summary: pooled miR-30 sensor sort-seq; sequence = guide strand
- Condition description: shRNA
When you answer, write just the number.

Query string: Quick one: sensor-assay potency score (higher = more potent) of `TTAACTTCTTAGCAACATCATA` ?
Result string: -1.57

Query string: Also `TTTCTCCTGATGACTTTCCAGC` , if possible.
Result string: -1.05

Query string: Entry `TTAACTGAGTCAATAACACCAC` please
Result string: 0.431

Query string: Another sequence to look at: `TAAAAGCATAGCCAACACCATT`
Result string: -1.62

Query string: # repeat for `TTACTTTGTCCTTTCCAGCTTC`
Result string: -0.236

Query string: // query: `TAACTGAGTCAATAACACCACC`
Result string: -0.972

Query string: Can you handle `TTTATACACATTCACTTCTTTT` next?
Result string: -1.24

Query string: Moving on to `ATACACATGAAATTAAACCAGA`
Result string: -0.735

Query string: Try `TTAGGTTCTATTAACTTCATAG` next.
Result string: -0.883

Query string: Try this sequence too: `TATGAAATCTTCTAGTCCTAGT`
Result string: -0.186
